Experiment: Henry solubility constant Hcp at 310 K (mol/(m3 Pa))
Conditions: reference: Eger et al. (1999)
Each item that follows carries a reported Henry solubility constant Hcp at 310 K.
attribute-measured: Henry solubility constant Hcp at 310 K

[[record]]
molecule = "CCCCCCO"
numeric_readout = 0.35

[[record]]
molecule = "CC(O)C(F)(F)C(F)(F)C(F)(F)F (configuration not stated)"
numeric_readout = 0.009

[[record]]
molecule = "OCC(F)(F)F"
numeric_readout = 0.43

[[record]]
molecule = "OCC(F)(F)C(F)C(F)(F)F (configuration not stated)"
numeric_readout = 0.32

[[record]]
molecule = "CCO"
numeric_readout = 1

[[record]]
molecule = "CC(O)(C(F)(F)F)C(F)(F)F"
numeric_readout = 0.018

[[record]]
molecule = "OCC(F)(F)C(F)(F)C(F)(F)C(F)(F)C(F)(F)C(F)F"
numeric_readout = 0.064

[[record]]
molecule = "OC(C(F)(F)F)C(F)(F)F"
numeric_readout = 0.1

[[record]]
molecule = "CCCCCCCCO"
numeric_readout = 0.27

[[record]]
molecule = "OCC(F)(F)C(F)(F)C(F)(F)C(F)(F)C(F)(F)F"
numeric_readout = 0.0017

[[record]]
molecule = "OCCC(F)(F)C(F)(F)C(F)(F)C(F)(F)C(F)(F)C(F)(F)F"
numeric_readout = 0.00094

[[record]]
molecule = "OCC(F)(F)C(F)(F)C(F)(F)C(F)F"
numeric_readout = 0.25

[[record]]
molecule = "CC(O)C(F)(F)F (configuration not stated)"
numeric_readout = 0.13

[[record]]
molecule = "OCC(F)(F)C(F)F"
numeric_readout = 0.75

[[record]]
molecule = "OCC(F)(F)C(F)(F)C(F)(F)C(F)(F)C(F)(F)C(F)(F)F"
numeric_readout = 0.0006

[[record]]
molecule = "OCC(F)(F)C(F)(F)C(F)(F)C(F)(F)C(F)(F)C(F)(F)C(F)(F)F"
numeric_readout = 0.00023

[[record]]
molecule = "OCC(F)(F)C(F)(F)F"
numeric_readout = 0.069


Data origin, for the record: Sander's compilation of Henry's law constants (doi:10.1213/00000539-199904000-00035)
